systemUnderTest: human serotonin transporter (hSERT) (Homo sapiens, UniProt P31645)
Sequence (P31645 whole entry): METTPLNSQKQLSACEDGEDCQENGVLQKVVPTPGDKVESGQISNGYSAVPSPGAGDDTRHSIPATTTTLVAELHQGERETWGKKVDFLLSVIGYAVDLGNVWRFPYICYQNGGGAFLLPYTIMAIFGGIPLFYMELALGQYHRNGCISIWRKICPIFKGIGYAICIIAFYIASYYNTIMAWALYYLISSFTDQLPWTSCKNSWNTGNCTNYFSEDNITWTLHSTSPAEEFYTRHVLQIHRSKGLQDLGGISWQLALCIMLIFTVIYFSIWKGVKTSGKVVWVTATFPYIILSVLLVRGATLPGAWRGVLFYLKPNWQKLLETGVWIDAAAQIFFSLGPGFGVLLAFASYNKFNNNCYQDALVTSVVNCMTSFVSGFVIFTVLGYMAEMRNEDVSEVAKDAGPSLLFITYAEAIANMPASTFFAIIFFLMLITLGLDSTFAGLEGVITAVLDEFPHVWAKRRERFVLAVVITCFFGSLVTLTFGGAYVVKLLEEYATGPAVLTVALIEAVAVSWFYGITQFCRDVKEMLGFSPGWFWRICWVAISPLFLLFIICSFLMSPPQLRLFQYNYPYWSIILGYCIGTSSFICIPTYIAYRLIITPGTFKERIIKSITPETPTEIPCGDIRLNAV
experimentSummary: Inhibition of APP+ uptake in hSERT-expressing HEK293 cells
cond: inhibition of APP+ (5 μM) uptake
For each record, check the reported IC50: if it is below 10 µM write label 1, else write label 0.

1) CCCCC(C(=O)c1ccccc1)N1CCCC1 (stereo not shown)	label 0
2) CCCCC(C(=O)c1ccc(Br)cc1)N1CCCC1.Cl (stereo not shown)	label 1
3) CCCCC(C(=O)c1ccc(OC)cc1)N1CCCC1.Cl (stereo not shown)	label 0
4) CCCCC(C(=O)c1ccc(C(F)(F)F)cc1)N1CCCC1.Cl (stereo not shown)	label 1

###

systemUnderTest: human dopamine transporter (hDAT) (Homo sapiens, UniProt Q01959)
Sequence (Q01959 whole entry): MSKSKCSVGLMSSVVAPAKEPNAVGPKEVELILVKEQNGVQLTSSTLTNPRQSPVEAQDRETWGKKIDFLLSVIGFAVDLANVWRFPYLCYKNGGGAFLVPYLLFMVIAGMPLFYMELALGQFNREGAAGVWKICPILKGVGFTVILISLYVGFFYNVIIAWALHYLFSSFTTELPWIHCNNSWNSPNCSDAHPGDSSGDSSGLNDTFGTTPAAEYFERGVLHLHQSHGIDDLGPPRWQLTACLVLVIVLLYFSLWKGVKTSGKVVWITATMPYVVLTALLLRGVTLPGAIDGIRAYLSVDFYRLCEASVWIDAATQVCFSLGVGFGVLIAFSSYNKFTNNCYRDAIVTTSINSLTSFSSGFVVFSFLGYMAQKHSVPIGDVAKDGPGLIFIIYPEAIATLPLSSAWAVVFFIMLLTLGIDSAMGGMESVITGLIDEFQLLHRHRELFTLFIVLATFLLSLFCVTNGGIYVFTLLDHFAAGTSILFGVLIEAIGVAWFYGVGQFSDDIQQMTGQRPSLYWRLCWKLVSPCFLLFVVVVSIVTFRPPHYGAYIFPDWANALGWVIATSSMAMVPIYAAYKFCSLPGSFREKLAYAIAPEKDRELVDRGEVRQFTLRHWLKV
experimentSummary: Inhibition of APP+ uptake in hDAT-expressing HEK293 cells
Type: cell-based
cond: SERT IC50 value ÷ DAT IC50 value
Below, each of the molecules is paired with its reported DAT Selectivity value.
readoutType: DAT Selectivity

1) CCCCC(C(=O)c1ccccc1)N1CCCC1 (stereo not drawn) [α-PHP (1), 1-phenyl-2-(pyrrolidin-1-yl)hexanone]	>300 fold
2) CCCCC(C(=O)c1ccc(C(F)(F)F)cc1)N1CCCC1.Cl (stereo not drawn) [4-CF3 α-PHP (9)]	0.8 fold
3) CCCCC(C(=O)c1ccc(OC)cc1)N1CCCC1.Cl (stereo not drawn) [4-OCH3 α-PHP (5)]	200 fold
4) CCCCC(C(=O)c1ccc(Br)cc1)N1CCCC1.Cl (stereo not drawn) [4-Br α-PHP (8)]	28 fold
5) CCCCC(C(=O)c1ccc(C)cc1)N1CCCC1.Cl (stereo not drawn) [4-CH3 α-PHP (4)]	83 fold
6) CCCCC(C(=O)c1ccc(CC)cc1)N1CCCC1.Cl (stereo not drawn) [4-CH2CH3 α-PHP (6)]	40 fold
7) CCCCC(C(=O)c1ccc(Cl)cc1)N1CCCC1.Cl (stereo not drawn) [4-Cl α-PHP (7)]	55 fold

###

Below, each of the compounds is paired with its reported IC50 value.
systemUnderTest: human dopamine transporter (hDAT) (Homo sapiens)
experimentSummary: Inhibition of APP+ uptake in hDAT-expressing HEK293 cells
cond: hDAT; inhibition of APP+ (3 μM) uptake
readoutType: IC50 (nM)

1. CCCCC(C(=O)c1ccc(C(F)(F)F)cc1)N1CCCC1.Cl (stereo not shown)	7500
2. CCCCC(C(=O)c1ccc(Cl)cc1)N1CCCC1.Cl (stereo not shown)	184
3. CCCCC(C(=O)c1ccc(OC)cc1)N1CCCC1.Cl (stereo not shown)	75
4. CCCCC(C(=O)c1ccccc1)N1CCCC1 (stereo not shown)	97
5. CCCCC(C(=O)c1ccc(Br)cc1)N1CCCC1.Cl (stereo not shown)	127
6. CCCCC(C(=O)c1ccc(C)cc1)N1CCCC1.Cl (stereo not shown)	124
7. CCCCC(C(=O)c1ccc(CC)cc1)N1CCCC1.Cl (stereo not shown)	247

###

systemUnderTest: human serotonin transporter (hSERT) (Homo sapiens, UniProt P31645)
experimentSummary: Inhibition of APP+ uptake in hSERT-expressing HEK293 cells
cond: inhibition of APP+ (5 μM) uptake
pIC50: −log10 of the molar value.
readoutType: pIC50

1) CCCCC(C(=O)c1ccc(Cl)cc1)N1CCCC1.Cl (stereo not drawn)	5.00
2) CCCCC(C(=O)c1ccc(CC)cc1)N1CCCC1.Cl (stereo not drawn)	5.01
3) CCCCC(C(=O)c1ccc(C)cc1)N1CCCC1.Cl (stereo not drawn)	4.99

Provenance of the data: paper PMC10670441
